- EXPERIMENT: Metabolic stability in human liver microsomes
- Assay type: in vitro ADME
- MEASUREMENT_PARAMETERS: male, human, microsomes
- Protocol: The metabolic stability is an important focus for further compound optimisation. Compounds 7f, 7i, and AB928 were chosen to evaluate the stability in rat liver microsomes and human liver microsomes. For the microsomal metabolic experiment, 7-ethoxycoumarin (7-EC) was used as a control. […] incubated at 37 ℃ for 5 min. […] Then 50 μL of the supernatant was analyzed […] USA). […] Quantification was performed using multiple reaction monitoring (MRM) mode to monitor precursor-product ion transitions (Table S1). […]
Measured remaining at 1 h, 0.49 µM, listed per entry.
Your answer is read as %, so omit the unit and give the number.

Worked examples, 3 compounds total:
- COMPOUND: "CCOc1ccc2ccc(=O)oc2c1 [Compound 7-EC, 7-ethoxycoumarin, reference compound]"
  UNIT_TEXT: "%"
  remaining at 1 h, 0.49 µM: 0.72
- COMPOUND: "Cc1c(C#N)cccc1-c1cc(-c2cn(Cc3cccc(C#N)n3)nn2)nc(N)n1 [Compound 7f]"
  UNIT_TEXT: "%"
  remaining at 1 h, 0.49 µM: 105
- COMPOUND: "Cc1c(C#N)cccc1-c1cc(-c2cn(Cc3cccc(C(N)=O)n3)nn2)nc(N)n1 [Compound 7i]"
  UNIT_TEXT: "%"
  remaining at 1 h, 0.49 µM: 98.8

get_value(item= Cc1c(C#N)cccc1-c1cc(-c2cn(Cc3cccc(C(C)(C)O)n3)nn2)nc(N)n1 [AB928, reference compound] , readout=remaining at 1 h, 0.49 µM) returns 94.4

====

- EXPERIMENT: Metabolic stability in rat liver microsomes
- Format: in vitro ADME, Sprague–Dawley rats
- MEASUREMENT_PARAMETERS: male, Sprague-Dawley, rat, pooled rat liver microsomes; read-out: T1/2 Rat
- Experimental: The metabolic stability is an important focus for further compound optimisation. Compounds 7f, 7i, and AB928 were chosen to evaluate the stability in rat liver microsomes and human liver microsomes. For the microsomal metabolic experiment, 7-ethoxycoumarin (7-EC) was used as a control. […] incubated at 37 ℃ for 5 min. […] Then 50 μL of the supernatant was analyzed […] USA). […] Quantification was performed using multiple reaction monitoring (MRM) mode to monitor precursor-product ion transitions (Table S1). […]
Measured half-life at 0.49 µM, listed per entry.
Your answer is read as min, so omit the unit and give the number.

Worked examples, 3 compounds total:
- COMPOUND: "Cc1c(C#N)cccc1-c1cc(-c2cn(Cc3cccc(C(N)=O)n3)nn2)nc(N)n1 [Compound 7i]"
  half-life at 0.49 µM [min]: 67.3
- COMPOUND: "Cc1c(C#N)cccc1-c1cc(-c2cn(Cc3cccc(C(C)(C)O)n3)nn2)nc(N)n1 [AB928, reference compound]"
  half-life at 0.49 µM [min]: 33.8
- COMPOUND: "CCOc1ccc2ccc(=O)oc2c1 [Compound 7-EC, 7-ethoxycoumarin, reference compound]"
  half-life at 0.49 µM [min]: 7.26

Turning now to a further record.
get_value(item= Cc1c(C#N)cccc1-c1cc(-c2cn(Cc3cccc(C#N)n3)nn2)nc(N)n1 [Compound 7f] , readout=half-life at 0.49 µM) returns 93.7

====

- EXPERIMENT: Metabolic stability in human liver microsomes
- Format: in vitro ADME
- MEASUREMENT_PARAMETERS: male; human liver microsomes, 10 min; read-out: %Remaining Hum, 10 min
ATTRIBUTE_MEASURED: remaining at 10 min, 0.49 µM (%)
Your answer is read as %, so omit the unit and give the number.

get_value(item= CCOc1ccc2ccc(=O)oc2c1 [Compound 7-EC, 7-ethoxycoumarin, reference compound] , readout=remaining at 10 min, 0.49 µM) returns 34

====

Measured remaining at 20 min, 0.49 µM, listed per entry.
- EXPERIMENT: Metabolic stability in rat liver microsomes
- Format: in vitro ADME, Sprague–Dawley rats
- MEASUREMENT_PARAMETERS: male, Sprague-Dawley, pooled rat liver microsomes; rat liver microsomes, 20 min
Your answer is read as %, so omit the unit and give the number.

Worked examples, 3 molecules total:
- MOLECULE: "Cc1c(C#N)cccc1-c1cc(-c2cn(Cc3cccc(C(N)=O)n3)nn2)nc(N)n1"
  RECORDED_RESULT: 72.8
- MOLECULE: "Cc1c(C#N)cccc1-c1cc(-c2cn(Cc3cccc(C#N)n3)nn2)nc(N)n1"
  RECORDED_RESULT: 88
- MOLECULE: "Cc1c(C#N)cccc1-c1cc(-c2cn(Cc3cccc(C(C)(C)O)n3)nn2)nc(N)n1 [AB928, reference compound]"
  RECORDED_RESULT: 67.4

get_value(item= CCOc1ccc2ccc(=O)oc2c1 [Compound 7-EC, 7-ethoxycoumarin, reference compound] , readout=remaining at 20 min, 0.49 µM) returns 23

====

- SYSTEM_NAME: UniProtKB P29274
- Sequence (P29274 whole entry): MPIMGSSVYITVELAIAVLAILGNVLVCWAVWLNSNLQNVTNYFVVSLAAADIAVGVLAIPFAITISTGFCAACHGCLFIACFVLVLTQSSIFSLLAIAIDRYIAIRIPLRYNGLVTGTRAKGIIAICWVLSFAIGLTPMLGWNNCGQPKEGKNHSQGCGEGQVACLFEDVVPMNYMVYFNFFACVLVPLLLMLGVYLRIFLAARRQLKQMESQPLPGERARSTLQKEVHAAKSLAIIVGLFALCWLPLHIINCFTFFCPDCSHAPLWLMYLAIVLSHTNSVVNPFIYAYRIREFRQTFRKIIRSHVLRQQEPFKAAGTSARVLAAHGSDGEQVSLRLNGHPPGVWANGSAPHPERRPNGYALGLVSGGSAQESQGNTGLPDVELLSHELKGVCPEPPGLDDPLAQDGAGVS
- EXPERIMENT: A2A AR radioligand binding assay ([3H]-ZM241385, HEK-293 cell membranes)
- MEASUREMENT_PARAMETERS: hA2A AR, HEK-293 membranes, [3H]-ZM241385; mean ± SEM; read-out: Radioligand binding assays IC50
- Procedure: We further tested the IC50 values of compounds 7f, 7i, 17, 22, and AB928 in inhibiting the cAMP production of CHO cells expressing hA2A AR or hA2B AR (Table 2). […] In addition, the competitive binding experiments of compounds 7f, 7i, and AB928 were performed using membrane preparation of HEK-293 cells expressing human A2A AR (Table 3). The target compounds were tested to evaluate their affinity for the A2A AR on HEK-293 cell membranes expressing human A2A AR. […]
Measured pIC50, listed per entry.
pIC50 here is simply -log10 of the concentration when that concentration is written in mol/L.

- SMILES_TEXT: "Cc1c(C#N)cccc1-c1cc(-c2cn(Cc3cccc(C#N)n3)nn2)nc(N)n1"
  RECORDED_RESULT: 6.80

Turning now to a further record.
get_value(item= `Cc1c(C#N)cccc1-c1cc(-c2cn(Cc3cccc(C(N)=O)n3)nn2)nc(N)n1` , readout=pIC50) returns 7.20

====

- EXPERIMENT: Metabolic stability in rat liver microsomes
- Type: in vitro ADME, Sprague–Dawley rats
- MEASUREMENT_PARAMETERS: male, Sprague-Dawley, pooled rat liver microsomes; rat liver microsomes, 10 min
ATTRIBUTE_MEASURED: remaining at 10 min, 0.49 µM (%)
Your answer is read as %, so omit the unit and give the number.

- COMPOUND: "Cc1c(C#N)cccc1-c1cc(-c2cn(Cc3cccc(C(N)=O)n3)nn2)nc(N)n1"
  ATTRIBUTE_MEASURED: "remaining at 10 min, 0.49 µM"
  RECORDED_RESULT: 74.9
- COMPOUND: "CCOc1ccc2ccc(=O)oc2c1 [Compound 7-EC, 7-ethoxycoumarin, reference compound]"
  ATTRIBUTE_MEASURED: "remaining at 10 min, 0.49 µM"
  RECORDED_RESULT: 49
- COMPOUND: "Cc1c(C#N)cccc1-c1cc(-c2cn(Cc3cccc(C(C)(C)O)n3)nn2)nc(N)n1 [AB928, reference compound]"
  ATTRIBUTE_MEASURED: "remaining at 10 min, 0.49 µM"
  RECORDED_RESULT: 74.7

get_value(item= `Cc1c(C#N)cccc1-c1cc(-c2cn(Cc3cccc(C#N)n3)nn2)nc(N)n1` , readout=remaining at 10 min, 0.49 µM) returns 84.7

====

Measured half-life, listed per entry.
- EXPERIMENT: In vivo pharmacokinetics study in Balb/c mice
- MEASUREMENT_PARAMETERS: female, Balb/c, mouse, plasma, oral 30 mg/kg, mean n = 3, read-out: t1/2 Oral (converted)
Your answer is read as h, so omit the unit and give the number.

- COMPOUND: "Cc1c(C#N)cccc1-c1cc(-c2cn(Cc3cccc(C#N)n3)nn2)nc(N)n1 [Compound 7f]"
  UNIT_TEXT: "h"
  half-life: 4.12

Turning now to a further record.
get_value(item= Cc1c(C#N)cccc1-c1cc(-c2cn(Cc3cccc(C(N)=O)n3)nn2)nc(N)n1 [Compound 7i] , readout=half-life) returns 4.82

====

- SYSTEM_NAME: UniProt P29274
- EXPERIMENT: cAMP functional assay in CHO-K1/ADORA2A/Gα15 cells (NECA-stimulated, HTRF);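 further: inhibition of NECA-driven intracellular cAMP build-up in the A2A-expressing cells, quantified with cAMP-d2 plus Eu3+-labelled anti-cAMP detection reagent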
- Assay type: cell-based
- MEASUREMENT_PARAMETERS: CHO-K1; compound at 100 nM; relative to ZM241385 at 1 μM; mean ± SEM; read-out: hA2A AR (%) inhibition of cAMP, 100 nM
Assign Criterion met to entries whose inhibition at 0.1 µM meets or exceeds 80%; assign Criterion not met to the rest.

- SMILES_TEXT: "Cc1c(C#N)cccc1-c1cc(-c2cn(Cc3cccc(C(=O)N4CC(O)C4)n3)nn2)nc(N)n1"
  CLASS_ASSIGNMENT: "Criterion not met"

**Q:** Is the recorded value of inhibition at 0.1 µM equal to or greater than 80% for this molecule? `CC(C)(O)c1cccc(Cn2cc(-c3cc(-c4cccc(CF)c4)nc(N)n3)nn2)n1`
**A:** Criterion met

**Q:** Is the recorded value of inhibition at 0.1 µM equal to or greater than 80% for this molecule? `Cc1c(C#N)cccc1-c1cc(-c2cn(Cc3cccc(C(=O)OC(C)C)n3)nn2)nc(N)n1`
**A:** Criterion not met

**Q:** Is the recorded value of inhibition at 0.1 µM equal to or greater than 80% for this molecule? `COc1cccc(Cn2cc(-c3cc(-c4cccc(C#N)c4C)nc(N)n3)nn2)c1`
**A:** Criterion not met

**Q:** Is the recorded value of inhibition at 0.1 µM equal to or greater than 80% for this molecule? `Cc1ccc(-c2cc(-c3cn(Cc4cccc(C(C)(C)O)n4)nn3)nc(N)n2)o1`
**A:** Criterion met
